Give measured half-life for each item. Keep answers brief.
# method: Compound was evaluated for the half life period after oral administration in conscious dog.
# Format: ADME, organism-based, Canis lupus familiaris
# conditions: in vivo
The reply should contain only the number, in h.

*Q* Endpoint output: half-life of `CC[C@H]1OC(=O)[C@H](C)[C@@H](O[C@H]2C[C@@](C)(OC)C[C@H](C)O2)[C@H](C)[C@@H](O[C@@H]2O[C@H](C)C[C@H](N(C)C)[C@H]2O)[C@@]2(C)C[C@@H](C)[C@@H](O2)[C@H](C)[C@@H](O)[C@]1(C)O` . Value?
*A* 4

*Q* Consider the compound shown here: `CC[C@H]1NC(=O)[C@H](C)[C@@H](O[C@H]2C[C@@](C)(OC)C[C@H](C)O2)[C@H](C)[C@@H](O[C@@H]2O[C@H](C)C[C@H](N(C)C)[C@H]2O)[C@@]2(C)C[C@@H](C)[C@@H](O2)[C@H](C)[C@@H](O)[C@]1(C)O` What is its recorded half-life?
*A* 3.3

*Q* Which half-life is reported for this compound? `CC[C@H]1NC(=O)[C@H](C)[C@@H](O[C@H]2C[C@@](C)(OC)C[C@H](C)O2)[C@H](C)[C@@H](O[C@@H]2O[C@H](C)C[C@H](N(C)C(C)C)[C@H]2O)[C@@]2(C)C[C@@H](C)[C@@H](O2)[C@H](C)[C@@H](O)[C@]1(C)O`
*A* 3.8

----------
Would you kindly list bioavailability for each of these compounds?
# method: Oral bioavailability in dog (conscious)
# Format: ADME, organism-based, Canis lupus familiaris
# conditions: in vivo
Return type: number; implicit unit %.

*Q* Record request: bioavailability value, item `CC[C@H]1OC(=O)[C@H](C)[C@@H](O[C@H]2C[C@@](C)(OC)C[C@H](C)O2)[C@H](C)[C@@H](O[C@@H]2O[C@H](C)C[C@H](N(C)C)[C@H]2O)[C@@]2(C)C[C@@H](C)[C@@H](O2)[C@H](C)[C@@H](O)[C@]1(C)O`
*A* 5

*Q* Please give the measured bioavailability for this compound: `CC[C@H]1NC(=O)[C@H](C)[C@@H](O[C@H]2C[C@@](C)(OC)C[C@H](C)O2)[C@H](C)[C@@H](O[C@@H]2O[C@H](C)C[C@H](N(C)C)[C@H]2O)[C@@]2(C)C[C@@H](C)[C@@H](O2)[C@H](C)[C@@H](O)[C@]1(C)O`
*A* 40

*Q* May I ask what bioavailability has been recorded for `CC[C@H]1NC(=O)[C@H](C)[C@@H](O[C@H]2C[C@@](C)(OC)C[C@H](C)O2)[C@H](C)[C@@H](O[C@@H]2O[C@H](C)C[C@H](N(C)C(C)C)[C@H]2O)[C@@]2(C)C[C@@H](C)[C@@H](O2)[C@H](C)[C@@H](O)[C@]1(C)O` ?
*A* 60.5
